Test system: HBV (HepG2.117 cell line, inducibly HBV producing)
method: Anti-HBV activity, intracellular HBV DNA by real-time PCR in HepG2.117 cell line
Assay type: cell-based, hepatitis B virus
assayConditions: Hepatitis B virus, HepG2.117, 72 h, HepG2.117 cells, 3 days of treatment
Listing: EC50 of selected compounds
Give your result in µM as a bare value.

compound | target | EC50, µM
C[C@@H]1Cc2nn3c(c2CN1C(=O)c1ccc(Cl)c(Cl)c1)C(=O)N([C@H](C)c1ccc([S@](C)(=N)=O)cc1)C[C@H]3C (relative stereo) [Compound 18A] | HBV (HepG2.117 cell line, inducibly HBV producing) | 0.084
CC(c1cnc(C(F)(F)F)cn1)N1C[C@@H](C)n2nc3c(c2C1=O)CN(C(=O)c1ccc(Cl)c(C#N)c1)[C@H](C)C3 (single isomer, unassigned) [Compound 10B] | HBV (HepG2.117 cell line, inducibly HBV producing) | 0.087
CC(c1ccccn1)N1C[C@@H](C)n2nc3c(c2C1=O)CN(C(=O)c1ccc(Cl)c(Cl)c1)[C@H](C)C3 (single isomer, unassigned) [Compound 65A] | HBV (HepG2.117 cell line, inducibly HBV producing) | 0.034
CN=[S@](C)(=O)c1ccc([C@H](C)N2C[C@@H](C)n3nc4c(c3C2=O)CN(C(=O)c2ccc(Cl)c(Cl)c2)[C@H](C)C4)cn1 (relative stereo) [Compound 29C] | HBV (HepG2.117 cell line, inducibly HBV producing) | 0.051
CC(c1ccc(S(N)(=O)=O)cc1)N1C[C@@H](C)n2nc3c(c2C1=O)CN(C(=O)c1ccc(Cl)c(Cl)c1)[C@H](C)C3 (single isomer, unassigned) [Compound 16A] | HBV (HepG2.117 cell line, inducibly HBV producing) | 0.061

Summary for this compound, CC(c1ccc(NS(C)(=O)=O)cn1)N1C[C@@H](C)n2nc3c(c2C1=O)CN(C(=O)c1ccc(Cl)c(C(F)(F)F)c1)[C@H](C)C3 (single isomer, unassigned) [Compound 33A] : EC50 is 0.036

Summary for this compound, C[C@@H]1Cc2nn3c(c2CN1C(=O)c1ccc(Cl)c(C#N)c1)C(=O)N([C@H](C)c1ccc(OC(F)F)cc1)C[C@H]3C (relative stereo) : EC50 is 0.044
